# TARGET OR TEST SYSTEM: human cannabinoid CB1 receptor (Homo sapiens, UniProt P21554)
# Construct: expressed in transfected cells; host or cells: Chinese hamster ovary (CHO) cells, membrane preparation
# Sequence (P21554 whole entry): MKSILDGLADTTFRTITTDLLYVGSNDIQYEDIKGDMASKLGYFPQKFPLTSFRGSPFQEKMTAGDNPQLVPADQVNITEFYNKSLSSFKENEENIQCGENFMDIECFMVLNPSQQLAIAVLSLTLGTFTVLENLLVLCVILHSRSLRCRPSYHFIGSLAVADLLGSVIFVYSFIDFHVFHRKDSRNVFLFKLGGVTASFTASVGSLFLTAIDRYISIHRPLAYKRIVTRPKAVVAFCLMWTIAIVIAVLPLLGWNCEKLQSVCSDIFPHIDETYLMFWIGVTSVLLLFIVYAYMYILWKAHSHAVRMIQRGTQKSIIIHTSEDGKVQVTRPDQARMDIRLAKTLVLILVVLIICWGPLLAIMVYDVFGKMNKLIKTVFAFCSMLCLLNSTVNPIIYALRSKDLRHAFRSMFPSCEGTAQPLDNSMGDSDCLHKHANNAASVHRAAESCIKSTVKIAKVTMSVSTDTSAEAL
# PROTOCOL DETAILS: In vitro affinity for human cannabinoid CB1 receptors ([3H]CP-55,940 radioligand binding, CHO cell membranes)
# Description: In vitro Affinity for Human Cannabinoid CB1 Receptors The affinity of the compounds of the invention for cannabinoid CB1 receptors can be determined using membrane preparations of Chinese hamster ovary (CHO) cells in which the human cannabinoid CB1 receptor is stably transfected in conjunction with [^3H]CP-55,940 as radioligand. […] Radioactivity on the filter is measured by liquid scintillation counting.
REPORTED PROPERTY: Ki (nM)
Express your answer in nM, writing the number without its unit.

Per the record, CCCCCc1nc(C(=O)NC2CCCCC2)sc1-c1ccccc1 has Ki of 251
